Target: Nav 1.5 (Homo sapiens (Human), UniProt Q14524)
Sequence (Q14524 whole entry): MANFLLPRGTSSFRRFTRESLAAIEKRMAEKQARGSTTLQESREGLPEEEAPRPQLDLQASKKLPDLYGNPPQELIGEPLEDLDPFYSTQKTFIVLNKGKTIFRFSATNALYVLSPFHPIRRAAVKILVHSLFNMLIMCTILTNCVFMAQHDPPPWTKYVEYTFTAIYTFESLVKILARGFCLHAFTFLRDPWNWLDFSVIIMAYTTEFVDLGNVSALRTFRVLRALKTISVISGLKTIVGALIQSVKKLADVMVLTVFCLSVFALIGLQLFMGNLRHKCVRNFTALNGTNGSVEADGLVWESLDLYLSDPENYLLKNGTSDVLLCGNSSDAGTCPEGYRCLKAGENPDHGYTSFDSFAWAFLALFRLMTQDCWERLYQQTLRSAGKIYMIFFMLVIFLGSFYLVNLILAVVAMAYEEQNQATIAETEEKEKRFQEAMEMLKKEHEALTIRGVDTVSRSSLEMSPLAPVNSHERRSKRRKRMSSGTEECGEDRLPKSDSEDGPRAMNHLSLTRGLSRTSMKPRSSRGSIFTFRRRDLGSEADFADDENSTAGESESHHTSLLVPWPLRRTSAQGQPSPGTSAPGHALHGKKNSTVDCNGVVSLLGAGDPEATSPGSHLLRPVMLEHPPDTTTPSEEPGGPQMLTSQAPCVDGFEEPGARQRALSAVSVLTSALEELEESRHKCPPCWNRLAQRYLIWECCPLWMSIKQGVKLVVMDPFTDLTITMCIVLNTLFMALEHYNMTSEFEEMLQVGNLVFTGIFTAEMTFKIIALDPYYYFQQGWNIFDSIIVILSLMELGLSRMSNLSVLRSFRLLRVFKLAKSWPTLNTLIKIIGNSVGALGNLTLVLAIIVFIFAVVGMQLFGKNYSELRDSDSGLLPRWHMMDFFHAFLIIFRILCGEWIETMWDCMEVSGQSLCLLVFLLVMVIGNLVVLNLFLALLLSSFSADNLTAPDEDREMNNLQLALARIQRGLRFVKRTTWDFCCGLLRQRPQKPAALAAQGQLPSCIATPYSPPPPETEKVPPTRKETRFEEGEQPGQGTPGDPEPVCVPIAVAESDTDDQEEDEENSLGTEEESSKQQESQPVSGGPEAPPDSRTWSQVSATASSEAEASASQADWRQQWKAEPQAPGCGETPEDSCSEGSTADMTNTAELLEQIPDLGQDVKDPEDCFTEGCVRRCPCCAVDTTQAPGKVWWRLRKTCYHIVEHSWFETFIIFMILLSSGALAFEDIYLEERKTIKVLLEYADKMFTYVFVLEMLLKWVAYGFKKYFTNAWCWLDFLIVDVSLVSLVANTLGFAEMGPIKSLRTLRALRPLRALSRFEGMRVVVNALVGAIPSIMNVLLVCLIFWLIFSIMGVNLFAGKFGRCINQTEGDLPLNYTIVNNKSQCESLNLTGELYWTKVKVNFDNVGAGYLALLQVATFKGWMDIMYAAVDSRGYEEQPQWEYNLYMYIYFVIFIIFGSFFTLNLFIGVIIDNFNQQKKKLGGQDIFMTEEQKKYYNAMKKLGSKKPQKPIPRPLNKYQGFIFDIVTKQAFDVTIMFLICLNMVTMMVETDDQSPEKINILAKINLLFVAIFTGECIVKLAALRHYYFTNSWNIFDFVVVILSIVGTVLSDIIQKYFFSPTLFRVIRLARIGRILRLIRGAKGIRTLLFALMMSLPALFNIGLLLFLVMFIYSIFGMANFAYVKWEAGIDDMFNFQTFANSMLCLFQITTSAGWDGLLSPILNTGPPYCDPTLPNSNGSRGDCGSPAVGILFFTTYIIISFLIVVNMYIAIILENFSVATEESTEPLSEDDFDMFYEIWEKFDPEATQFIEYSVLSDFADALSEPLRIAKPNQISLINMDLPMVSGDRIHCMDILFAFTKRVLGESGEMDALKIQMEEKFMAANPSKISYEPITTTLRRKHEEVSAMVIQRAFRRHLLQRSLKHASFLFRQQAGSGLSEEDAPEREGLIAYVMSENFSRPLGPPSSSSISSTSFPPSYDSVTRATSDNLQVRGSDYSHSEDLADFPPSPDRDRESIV
Test: Nav 1.5 in vitro assay, IonWorks Quattro (IWQ) population patch-clamp
Type: cell-based
Conditions: HEK 293 cells stably transfected with Nav 1.5; 26th pulse to -20 mV
Could you please report measured pIC50 for the items listed next?
Answers are plain numbers, as −log10 of the molar value.

# example entries with known answers
CN1CC=C(c2cc(C(F)(F)F)ccc2N2CCOc3cc(S(=O)(=O)Nc4nccs4)ccc32)CC1
5.44
O=S(=O)(Nc1nccs1)c1ccc2c(c1)OCCN2c1ccc(-n2cccn2)cc1
5.60
[N-]=[N+]=Nc1ccc(N2CCOc3cc(S(=O)(=O)Nc4nccs4)ccc32)c(C2=CCNCC2)c1 [Example 65, Bis(2,2,2-Trifluoroacetate)]
5.28

Kindly give each listed record's pIC50.
1. O=S(=O)(Nc1nccs1)c1ccc2c(c1)OCCN2c1ccc(Cl)c(Cl)c1 [Example 74, 2,2,2-Trifluoroacetate]
2. O=S(=O)(Nc1nccs1)c1ccc2c(c1)OCCN2c1ccc(C(F)(F)F)cc1C1=CCNCC1 [Example 38, 2,2,2-Trifluoroacetate]
3. COc1ncc(Cl)cc1N1CCOc2cc(S(=O)(=O)Nc3nccs3)ccc21
4. N#Cc1ccc(Cl)cc1N1CCOc2cc(S(=O)(=O)Nc3nccs3)ccc21

Output line:
5.22
6.60
5.52
5.79
